Reference source: patent US7977489B2

Target: ERRα (Homo sapiens, UniProt P11474)
Sequence (P11474 174-423): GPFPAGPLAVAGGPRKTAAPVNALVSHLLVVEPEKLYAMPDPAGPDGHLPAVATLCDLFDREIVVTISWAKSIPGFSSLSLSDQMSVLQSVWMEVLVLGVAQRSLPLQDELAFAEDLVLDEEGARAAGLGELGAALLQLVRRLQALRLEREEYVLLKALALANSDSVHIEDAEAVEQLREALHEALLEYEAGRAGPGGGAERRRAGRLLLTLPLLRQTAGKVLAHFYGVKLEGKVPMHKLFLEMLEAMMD
Assay: GAL4-ERRα co-transfection assay (luciferase reporter, CV-1 cells)
Settings: average IC50 for inverse agonist activity in the GAL4-ERRα assay, CV-1 cells
IC50 values, listed per item

Compound	IC50
COc1cc(C=C2SC(N3CCNCC3)=NC2=O)ccc1OCc1ccc(C(F)(F)F)cc1C(F)(F)F [Example 23]	< 0.5 µM

**Q:** Find the measured IC50: item COc1cc(C=C2SC(N3CCSCC3)=NC2=O)ccc1OCc1ccc(C(F)(F)F)cc1C(F)(F)F [Example 22] , target or system ERRα (Homo sapiens, UniProt P11474).
**A:** 0.5 to 1 µM

**Q:** Find the measured IC50: item COc1cc(C=C2SC(N3CCN(CC4CCN(C)CC4)CC3)=NC2=O)ccc1OCc1ccc(C(F)(F)F)cc1C(F)(F)F , target or system ERRα (Homo sapiens, UniProt P11474).
**A:** 0.5 to 1 µM

###

Target: ERRα (Homo sapiens, UniProt P11474)
Experiment: GAL4-ERRα co-transfection assay (luciferase reporter, CV-1 cells)
Conditions: average IC50 for inverse agonist activity in the GAL4-ERRα assay, CV-1 cells
pIC50: −log10 of the molar value.
pIC50 values, listed per item

Molecule	Readout Name	Recorded Value
COc1cc(C=C2SC(N3CCN(C)CC3)=NC2=O)ccc1OCc1ccc(C(F)(F)F)cc1C(F)(F)F	pIC50	> 6.30
COc1cc(C=C2SC(N3CCN(Cc4ccc(Cl)cc4)CC3)=NC2=O)ccc1OCc1ccc(C(F)(F)F)cc1C(F)(F)F	pIC50	5.30 to 5.70
COc1cc(C=C2SC(N3CCCC3c3ccccn3)=NC2=O)ccc1OCc1ccc(C(F)(F)F)cc1C(F)(F)F (stereo not shown)	pIC50	> 6.30

Now take the following molecule into account.
**Q:** Fill blank: measured pIC50 of the molecule COc1cc(C=C2SC(N3CC(C)OC(C)C3)=NC2=O)ccc1OCc1ccc(C(F)(F)F)cc1C(F)(F)F (stereo not shown) is ____.
**A:** 5.70 to 6.00

###

IC50 values, listed per item
Molecular target: ERRα (Homo sapiens)
Experiment: GAL4-ERRα co-transfection assay (luciferase reporter, CV-1 cells)
Settings: average IC50 for inverse agonist activity in the GAL4-ERRα assay, CV-1 cells

Compound	IC50
COc1cc(C=C2SC(N3CCCC(c4nc5cc(C)ccc5[nH]4)C3)=NC2=O)ccc1OCc1ccc(C(F)(F)F)cc1C(F)(F)F (stereo not shown)	1000 to 2000 nM
COc1cc(C=C2SC(N3CCOCC3)=NC2=O)ccc1OCc1ccc(C(F)(F)F)cc1C(F)(F)F [Example 19]	500 to 1000 nM
CCCCCN1CCN(C2=NC(=O)C(=Cc3ccc(OCc4ccc(C(F)(F)F)cc4C(F)(F)F)c(OC)c3)S2)CC1	2000 to 5000 nM

Now take the following compound into account.
**Q:** Fill blank: measured IC50 of the compound COc1cc(C=C2SC(N3CCN(S(C)(=O)=O)CC3)=NC2=O)ccc1OCc1ccc(C(F)(F)F)cc1C(F)(F)F [Example 29] is ____.
**A:** < 500 nM
